study_target: Hypoxanthine-guanine phosphoribosyltransferase (Homo sapiens)
Sequence (P00492 whole entry): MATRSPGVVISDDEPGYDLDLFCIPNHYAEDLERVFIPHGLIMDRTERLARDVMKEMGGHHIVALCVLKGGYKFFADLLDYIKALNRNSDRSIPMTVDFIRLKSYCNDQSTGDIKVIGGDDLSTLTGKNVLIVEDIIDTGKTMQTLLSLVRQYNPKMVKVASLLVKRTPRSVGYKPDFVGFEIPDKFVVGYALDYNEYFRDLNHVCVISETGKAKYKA
test_details: Inhibition of human HGPRT by spectrophotometric analysis in absence of PPi
pKi: −log10 of the molar value.
measurement_type: pKi

| compound | reported |
| --- | --- |
| Nc1nc2c(ncn2CC(O)COCP(=O)(O)O)c(=O)[nH]1 (configuration not stated) | 5.40 |
| Nc1nc2c(ncn2CC(COCP(=O)(O)O)OCC(=O)O)c(=O)[nH]1 (configuration not stated) | 5.30 |

* * *

test_details: Inhibition of Plasmodium falciparum HGPRT by spectrophotometric analysis in presence of 52 uM PPi
measurement_type: pKi
Reminder that pKi is minus the log10 of a molar concentration.

| molecule | pKi |
| --- | --- |
| O=c1[nH]cnc2c1ncn2CC(O)COCP(=O)(O)O (configuration not stated) | 6.52 |

Note: attention shifts to another entry.
Value of pKi reported for the molecule Nc1nc2c(ncn2CC(O)COCP(=O)(O)O)c(=O)[nH]1 (configuration not stated) is 6.30
